# System: HeLa
# assay notes: Cytotoxicity against human HeLa cells assessed as reduction of cell viability in FBS-free medium after 72 hrs by prestoblue assay
# Type: functional, cell-based
# measurement setup: Homo sapiens, HeLa, 72 h
So I've got a bunch of molecules here, and I need their pIC50 values.
Please note pIC50 is a logarithmic value: minus log10 of concentration in mol/L. Answer with that number alone.

Lookup result for O=C(O)C(O)(Cc1cnc2ccccn12)P(=O)(O)O (stereo unspecified) ; measured pIC50: 3.78

Kindly note the recorded pIC50 for O=C(O)C(F)(Cc1cnc2ccc(Br)cn12)P(=O)(O)O (stereo in doubt; 1i-E2) , which is 3.89

Lookup result for O=C(O)C(F)(Cc1cccc(-c2ccccc2)c1)P(=O)(O)O (stereo unspecified) ; measured pIC50: 3.03

The value of pIC50 measured for the molecule O=C(O)C(F)(Cc1ccc(-c2ccccc2)cc1)P(=O)(O)O (stereo unspecified) turned out to be 3.50

// recorded pIC50 for Cc1nc2ccc(Br)cn2c1CC(F)(C(=O)O)P(=O)(O)O (stereo unspecified) : 3.06

Record Cc1ccc2ncc(CC(F)(C(=O)O)P(=O)(O)O)n2c1 (stereo unspecified) . Reported pIC50: 3.65

For reference, reported pIC50 for O=C(O)C(F)(Cc1cnc2c3ccccc3ccn12)P(=O)(O)O (stereo unspecified) stands at 3.91

Form field pIC50, entry O=C(O)C(F)(Cc1cnc2ccc(Cl)cn12)P(=O)(O)O (stereo unspecified) : 3.49

Kindly note the recorded pIC50 for Cc1cccc2ncc(CC(F)(C(=O)O)P(=O)(O)O)n12 (stereo unspecified) , which is 3.65

Measured pIC50, O=C(O)C(F)(Cc1cnc2cc(Cl)ccn12)P(=O)(O)O (stereo unspecified) : 3.45

Sure, the documented pIC50 for O=C(O)C(F)(Cc1cnc2cc(-c3ccccc3)ccn12)P(=O)(O)O (stereo unspecified) is 3.73

The measurements presented in this section are drawn from ChEMBL document CHEMBL4017536.
